# study.system: Human CD137 ECD (human)
# Sequence (chain, as listed by the source limits assumed): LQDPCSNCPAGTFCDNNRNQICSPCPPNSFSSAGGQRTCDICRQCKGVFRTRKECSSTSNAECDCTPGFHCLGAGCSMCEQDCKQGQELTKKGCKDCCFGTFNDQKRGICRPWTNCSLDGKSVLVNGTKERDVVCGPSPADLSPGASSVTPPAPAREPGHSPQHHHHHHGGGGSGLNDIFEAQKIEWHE
# assay.protocol: single mutant vs template dBBDu183H
measured.endpoint: fold change of affinity (fold)
Numbers only, in fold.

binder	measured.number
H183/L072 VH M34S (antibody, name in Kabat numbering, V domains shown) VH: QVQLVESGGGLVQPGRSLRLSCAASGFTFSNAWSHWVRQAPGKGLEWVAQIKDKGNAYAAYYAPSVKGRFTISRDDSKNSIYLQMNSLKTEDTAVYYCHYVHYASASTVLPAFGVDAWGQGTTVTVSS VL: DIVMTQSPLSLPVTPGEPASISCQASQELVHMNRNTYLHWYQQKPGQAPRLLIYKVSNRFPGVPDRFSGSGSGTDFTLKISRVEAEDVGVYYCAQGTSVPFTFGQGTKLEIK	0

In the following, a different binder is considered.
Input line: Hello, please tell me recorded fold change of affinity for this one: H183/L072 VH N53G (antibody, name in Kabat numbering, V domains shown) VH: QVQLVESGGGLVQPGRSLRLSCAASGFTFSNAWMHWVRQAPGKGLEWVAQIKDKGGAYAAYYAPSVKGRFTISRDDSKNSIYLQMNSLKTEDTAVYYCHYVHYASASTVLPAFGVDAWGQGTTVTVSS VL: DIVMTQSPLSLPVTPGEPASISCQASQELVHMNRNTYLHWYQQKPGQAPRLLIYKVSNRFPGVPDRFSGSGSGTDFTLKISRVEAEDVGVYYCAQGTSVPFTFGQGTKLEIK
Output line: 0

Source listed as patent US20210388087A1.
